Molecular target: UniProt:P06276
pIC50: −log10 of the molar value.
Rule: label 1 for pIC50 not less than 4, label 0 for anything less.

Exam item: decide whether the reported pIC50 for COc1cccc2c1C=[N+](c1ccccc1Br)CC2 is at least 4.
label 1

Next compound: COc1cccc2cc[n+](-c3cccc(Cl)c3)cc12
label 1

Next compound: COc1cccc2cc[n+](-c3ccc(C(F)(F)F)cc3)cc12
label 1

Next compound: COc1cccc2c1C=[N+](c1ccc(I)cc1)CC2
label 1

Next compound: COc1cccc2cc[n+](-c3ccccc3C)cc12
label 0

Next compound: COc1cccc2c1C=[N+](c1ccccc1C)CC2
label 0

Next compound: COc1cccc2cc[n+](-c3c(F)cccc3F)cc12
label 1

Next compound: COc1cccc2cc[n+](-c3cccc(F)c3)cc12
label 0

====

Molecular target: Cholinesterase (Homo sapiens)
Sequence (P06276 whole entry): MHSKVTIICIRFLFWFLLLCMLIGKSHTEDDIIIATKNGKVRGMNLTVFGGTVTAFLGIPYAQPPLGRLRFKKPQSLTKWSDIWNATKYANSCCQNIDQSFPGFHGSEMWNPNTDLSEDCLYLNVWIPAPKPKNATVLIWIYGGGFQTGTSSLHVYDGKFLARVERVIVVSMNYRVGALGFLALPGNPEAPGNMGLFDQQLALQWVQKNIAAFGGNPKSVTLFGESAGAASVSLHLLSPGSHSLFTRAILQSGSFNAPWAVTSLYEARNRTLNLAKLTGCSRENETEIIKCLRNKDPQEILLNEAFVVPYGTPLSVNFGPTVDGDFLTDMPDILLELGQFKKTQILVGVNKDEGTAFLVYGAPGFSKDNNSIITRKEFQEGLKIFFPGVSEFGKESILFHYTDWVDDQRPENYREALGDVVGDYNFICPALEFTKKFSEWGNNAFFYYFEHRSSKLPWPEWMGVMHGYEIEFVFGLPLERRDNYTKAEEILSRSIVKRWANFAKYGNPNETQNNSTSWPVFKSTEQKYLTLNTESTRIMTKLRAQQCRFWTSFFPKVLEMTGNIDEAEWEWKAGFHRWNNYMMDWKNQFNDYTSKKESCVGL
Listed below: IC50 values for each entry.
Please reply with the bare figure in µM and do not write the unit itself.

| testSmiles | valueUnit | IC50 |
| --- | --- | --- |
| COc1cccc2c1C=[N+](c1ccc(Cl)cc1)CC2 | µM | 62.1 |
| COc1cccc2c1C=[N+](c1ccccc1F)CC2 | µM | 75 |

Item COc1cccc2c1C=[N+](c1ccc(Br)cc1F)CC2 has what recorded IC50?
69.3

Next compound: COc1cccc2c1C=[N+](c1ccc(Br)cc1)CC2
20.7

Next compound: COc1cccc2c1C=[N+](c1ccc(Cl)cc1Cl)CC2
90.5

Next compound: COc1cccc([N+]2=Cc3c(cccc3OC)CC2)c1
77.3

====

Target: Acetylcholinesterase (Homo sapiens, UniProt P22303)
Sequence (P22303 whole entry): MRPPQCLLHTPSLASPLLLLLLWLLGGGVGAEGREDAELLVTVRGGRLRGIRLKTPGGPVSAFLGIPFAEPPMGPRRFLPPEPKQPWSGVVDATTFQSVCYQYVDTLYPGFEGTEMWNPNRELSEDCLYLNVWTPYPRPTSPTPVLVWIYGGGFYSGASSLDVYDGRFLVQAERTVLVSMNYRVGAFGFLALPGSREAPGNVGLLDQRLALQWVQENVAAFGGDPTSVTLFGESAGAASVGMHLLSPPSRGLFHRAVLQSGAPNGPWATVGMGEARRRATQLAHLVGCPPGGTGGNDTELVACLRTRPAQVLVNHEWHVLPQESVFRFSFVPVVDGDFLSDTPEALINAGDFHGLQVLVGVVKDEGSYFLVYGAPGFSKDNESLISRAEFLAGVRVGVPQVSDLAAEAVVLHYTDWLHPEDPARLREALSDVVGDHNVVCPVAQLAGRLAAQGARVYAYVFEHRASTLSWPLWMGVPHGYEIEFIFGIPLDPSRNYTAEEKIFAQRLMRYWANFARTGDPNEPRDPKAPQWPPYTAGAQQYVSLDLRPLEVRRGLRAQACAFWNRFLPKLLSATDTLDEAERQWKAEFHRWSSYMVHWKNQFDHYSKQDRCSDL
Listed below: pIC50 values for each entry.
pIC50 is defined as minus the log10 of a concentration measured in mol/L.

Take a look at these entries with their results.
| testSmiles | pIC50 |
| --- | --- |
| COc1cccc2cc[n+](-c3ccc(I)cc3F)cc12 | 5.91 |
| COc1cccc(-[n+]2ccc3cccc(OC)c3c2)c1 | 5.16 |

Kindly consider the entry below.
Item COc1cccc2cc[n+](-c3ccc(C(F)(F)F)cc3)cc12 has what recorded pIC50?
6.16

====

Target: Acetylcholinesterase (Homo sapiens, UniProt P22303)
pIC50: −log10 of the molar value.
Rule: fulfilled for pIC50 not less than 6, not fulfilled for anything less.

Reference set (3 entries):
| testSmiles | categoryLabel |
| --- | --- |
| Brc1ccc(-[n+]2ccc3ccccc3c2)cc1 | not fulfilled |
| COc1cccc2c1C=[N+](c1ccccc1C#N)CC2 | not fulfilled |
| COc1cccc2c1C=[N+](c1ccc(Br)cc1Br)CC2 | not fulfilled |

Exam item: decide whether the reported pIC50 for COc1cccc2c1C=[N+](c1ccc(C(F)(F)F)cc1)CC2 is at least 6.
not fulfilled

Next compound: COc1cccc2cc[n+](-c3ccccc3C)cc12
not fulfilled

Next compound: COc1cccc2c1C=[N+](c1ccccc1Cl)CC2
not fulfilled

Next compound: COc1cccc2cc[n+](-c3cccc(Cl)c3)cc12
not fulfilled

Next compound: COc1cccc2c1C=[N+](c1ccccc1C(F)(F)F)CC2
not fulfilled

====

Listed below: log10 of IC50 values for each entry.
Molecular target: Acetylcholinesterase (Homo sapiens)
The base-10 logarithm of IC50, taken with IC50 in nM, is what appears here.

Take a look at these entries with their results.
| testSmiles | log10 of IC50 |
| --- | --- |
| COc1cccc2c1C=[N+](c1cccc(C#N)c1)CC2 | 3.71 |
| COc1cccc2c1C=[N+](c1cccc(C)c1)CC2 | 3.46 |
| COc1cccc2c1C=[N+](c1ccc(I)cc1F)CC2 | 3.03 |

Item COc1cccc2cc[n+](-c3ccc(Br)cc3F)cc12 has what recorded log10 of IC50?
2.95
